Origin of measurements: patent EP4725946A1

Target: IRAK4 protein (Homo sapiens, UniProt Q9NWZ3)
Sequence (Q9NWZ3 whole entry): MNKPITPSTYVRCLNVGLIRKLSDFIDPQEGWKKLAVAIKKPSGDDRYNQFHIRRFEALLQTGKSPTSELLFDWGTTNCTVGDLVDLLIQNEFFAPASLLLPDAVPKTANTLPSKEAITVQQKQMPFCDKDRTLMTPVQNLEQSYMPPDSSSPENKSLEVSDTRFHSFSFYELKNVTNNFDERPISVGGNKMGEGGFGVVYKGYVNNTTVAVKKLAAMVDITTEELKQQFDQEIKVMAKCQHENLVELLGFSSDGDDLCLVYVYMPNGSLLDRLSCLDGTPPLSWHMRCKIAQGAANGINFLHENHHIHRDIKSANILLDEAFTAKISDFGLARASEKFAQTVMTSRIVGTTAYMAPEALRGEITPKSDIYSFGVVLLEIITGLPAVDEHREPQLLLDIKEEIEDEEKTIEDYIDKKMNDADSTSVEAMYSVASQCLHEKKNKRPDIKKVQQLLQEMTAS
Test: IRAK4 Degradation Assay in THP-1 Cells (Western Blot)
Type: cell-based
Parameters: endogenous in cells; host or cells: THP-1 cells
Conditions: THP-1 cells, 24 hours, 0.0128 to 1000 nM, IRAK4 protein level by Western Blot; read-out: DC50
recorded_metric: DC50 (nM)

>>> data_value("COCC1CCN(c2cc3c(cc2NC(=O)c2cnn4cccnc24)CC2(CCN(C[C@H]4CC[C@H](OCC#Cc5cccc6c5n(C)c(=O)n6C5CCC(=O)NC5=O)CC4)CC2)O3)CC1 (some centres unmarked)")
6.38
>>> data_value("Cn1c(=O)n(C2CCC(=O)NC2=O)c2cccc(C#CCO[C@H]3CC[C@H](CN4CCC5(CC4)Cc4cc(NC(=O)c6coc7cccnc67)c(N6CCC(CO)CC6)cc4O5)CC3)c21 (some centres unmarked)")
4.69
>>> data_value("O=C1CCC(N2C(=O)c3ccc(N4CCC(CN5CCC6(CC5)Cc5cc(NC(=O)c7cnn8cccnc78)c(N7CCC(CO)CC7)cc5O6)CC4)cc3C2=O)C(=O)N1 (centres unmarked)")
3.44
>>> data_value("Cn1c(=O)n(C2CCC(=O)NC2=O)c2cccc(C#CCO[C@H]3CC[C@H](CN4CCC5(CC4)Cc4cc(NC(=O)c6cnn7cccnc67)c(N6CCC(CO)CC6)cc4C5)CC3)c21 (some centres unmarked)")
2.77
>>> data_value("Cc1cc(-c2nc(C(=O)Nc3cc4c(cc3N3CCC(O)CC3)OC3(CCN(C[C@H]5CC[C@H](OCC#Cc6cccc7c6n(C)c(=O)n7C6CCC(=O)NC6=O)CC5)CC3)C4)co2)ccn1 (some centres unmarked)")
5.4
